Tested on: Pneumocystis carinii
Assay: Treatment of Pneumocystis carinii pneumonia in Sprague-Dawley rats (extent of disease by histologic score)
Assay type: in vivo, male Sprague-Dawley rats
Settings: Table XII composite, 10 mg/kg; 0.5 = <10 cysts found per 2 sections
Procedure: Induction and Treatment Of Pneumocystis Carinii in Sprague-Dawley Rats Male Sprague-Dawley rats, barrier raised, non-certified virus free, weighing 150-200g were obtained from Hilltop Laboratories and housed individually. Animals were begun on a low (8%) protein diet (ICN Biomedicals, Cincinnati, OH) and drinking water containing tetracycline (0.5 mg/ml) and dexamethasone (1.0 μg/ml) immediately upon arrival. […]
Let's look at some compounds and their measured Extent of disease by histologic score (combined): number of animals in scoring group 0.5.
Give the number; animals is assumed, so skip it.

# example entries with known answers
compound	measured
N=C(N)c1cccc(OCCCCCOc2cccc(C(=N)N)c2)c1 [Example 28]	4
N=C(N)c1ccc(NCCCNc2ccc(C(=N)N)cc2)cc1 [Example 7]	5
N=C(N)c1ccc(OCCCCCOc2ccc(C(=N)N)cc2)cc1 [Example 12, Pentamidine, reference compound]	20
N=C(N)c1ccc(OCCCOc2ccc(C(=N)N)cc2N)c(N)c1 [Example 5]	2
N=C(N)c1ccc(NCCCCNc2ccc(C(=N)N)cc2)cc1 [Example 8]	3

Extent of disease by histologic score (combined): number of animals in scoring group 0.5 reading for N=C(N)c1ccc(OCCCCOc2ccc(C(=N)N)cc2N)c(N)c1 [Example 10] : 2

The compound listed as N=C(N)c1ccc(OCCCCOc2ccc(C(=N)N)cc2)cc1 [Example 9, butamidine] has a reported Extent of disease by histologic score (combined): number of animals in scoring group 0.5 of 8

The reported value for N=C(N)c1ccc(NCCCCNc2ccc(C(=N)N)cc2N)c(N)c1 [Example 37] in terms of Extent of disease by histologic score (combined): number of animals in scoring group 0.5 is 0

For reference, reported Extent of disease by histologic score (combined): number of animals in scoring group 0.5 for N=C(N)c1cccc(OCCCCCCOc2cccc(C(=N)N)c2)c1 [Example 29] stands at 1

Measured Extent of disease by histologic score (combined): number of animals in scoring group 0.5, N=C(N)c1cccc(OCCCCOc2cccc(C(=N)N)c2)c1 [Example 27] : 2

The compound identified as c1cc(C2=NCCN2)ccc1OCCCCCOc1ccc(C2=NCCN2)cc1 [Example 30] registered its Extent of disease by histologic score (combined): number of animals in scoring group 0.5 at 5

Note to self: Extent of disease by histologic score (combined): number of animals in scoring group 0.5 recorded for N=C(N)c1ccc(OCCCCCOc2ccc(C(=N)N)cc2N)c(N)c1 [Example 14] was 8

GET /value?item= N=C(N)c1ccc(OCCCOc2ccc(C(=N)N)cc2)cc1 [Example 4] &field=Extent of disease by histologic score (combined): number of animals in scoring group 0.5 returns 3

For this compound ( N=C(N)c1ccc(OCCCCCCOc2ccc(C(=N)N)cc2)cc1 [Example 20, hexamidine, reference compound] ), measured Extent of disease by histologic score (combined): number of animals in scoring group 0.5 is 3

Note to self: Extent of disease by histologic score (combined): number of animals in scoring group 0.5 recorded for N=C(N)c1ccc(NCCCNc2ccc(C(=N)N)cc2N)c(N)c1 [Example 36] was 1

// field: Extent of disease by histologic score (combined): number of animals in scoring group 0.5; key: N=C(N)c1ccc(NCCCCCCNc2ccc(C(=N)N)cc2N)c(N)c1 [Example 23] ; value = 3

# compound N=C(N)c1ccc(NCCCCCNc2ccc(C(=N)N)cc2)cc1 [Example 17] ; its Extent of disease by histologic score (combined): number of animals in scoring group 0.5 = 1

Notebook: N=C(N)c1cccc(OCCCOc2cccc(C(=N)N)c2)c1 [Example 26] , Extent of disease by histologic score (combined): number of animals in scoring group 0.5 read as 2

The compound listed as c1cc(C2=NCCN2)ccc1OCCCCOc1ccc(C2=NCCN2)cc1 [Example 40] has a reported Extent of disease by histologic score (combined): number of animals in scoring group 0.5 of 1
